# credit: PubChem BioAssay (NCI)

# Tested on: SR leukemia
# Protocol notes: NCI-60 one-dose screen, 48 h
# Condition set: 10 µM unless noted
This is part of a sample that, as a whole, favours compounds with a hit. Of some 83,000 tested, about 20% had one in any assay. Activity calls are given as the source filed them. How the source made its calls: active means growth percent below 10; inactive means the rest.
Outcome codes: 1 (active), -1 (inactive)

# Compound, System tested, Classification
data = [
    ("COCCn1cc(-c2csc(-c3c[nH]c4ccccc34)n2)c2cccnc21", "SR leukemia", 1),
    ("COC12C=C/C(=C(/C(=O)OCc3cncnc3)C(=O)CCCCCCCCC3(OC)C=C/C(=C(/C(=O)OCc4cncnc4)C(=O)CCCCCCCC1)O3)O2", "SR leukemia", 1),
    ("CC(C)(C)c1ccc(C(=O)N/N=C/c2ccc(O)cc2O)cc1", "SR leukemia", -1),
    ("Cc1ccc(C)c2c1sc1nc(N3CCOCC3)c(C#N)c(=O)n12", "SR leukemia", -1),
    ("COc1ccc2c(c1)C(C)Cc1c(ncnc1-n1cnc3cc(C)ccc31)N2C (stereo not given)", "SR leukemia", 1),
]
